- test.method.notes: small-molecule binders of probe aNOTCH3, primary screen, biochemical, small-molecule microarray, 635/667 nm fluorescence (AID 1120);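 further: probe is a biotin-tagged antibody raised against NOTCH3 rather than NOTCH3 protein; score merges spot fluorescence near 667 nm with spot signal to noise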
- measurement.parameters: higher = more signal
Give fulfilled when the value for composite z-score is at least 0.02. Give not fulfilled when it is less.

[in] Is it the case that O=C1c2ccccc2[C@](Cc2ccccc2I)(C(=O)NCCN2CCOCC2)[C@H](c2ccc(CO)cc2)N1Cc1ccccc1Cl has composite z-score reaching or exceeding 0.02?
[out] fulfilled

[in] Is it the case that CCCCCCc1nc(-c2ccc(OC)nc2)cc2c1[Si](C(C)C)(C(C)C)O[C@H]2c1ccccc1 has composite z-score reaching or exceeding 0.02?
[out] not fulfilled

[in] Is it the case that O=C1C[C@@](C(=O)NCC(F)(F)F)(c2ccc([N+](=O)[O-])cc2)[C@@H](c2ccc(CO)cc2I)N1C1CCCCC1 has composite z-score reaching or exceeding 0.02?
[out] fulfilled

[in] Is it the case that COCCOC(=O)N1C(=O)[C@@]2(c3cc(C#CCNC(N)=O)ccc31)[C@H](C(=O)N1CCN(c3ncccn3)CC1)[C@H]1C(=O)O[C@H](c3ccccc3)[C@H](c3ccccc3)N1[C@@H]2c1ccc(OCCO)cc1 has composite z-score reaching or exceeding 0.02?
[out] fulfilled

[in] Is it the case that CC(=O)n1cc(C(O)C2C=CC3C(=O)N(c4ccccc4)C(=O)C3N2Nc2ccc([N+](=O)[O-])cc2)c2ccccc21 (configuration not stated) has composite z-score reaching or exceeding 0.02?
[out] not fulfilled

[in] Is it the case that C=C(COC)/C(=C/C[C@@H](OC(=O)c1ccncc1)c1ccc(CO)o1)c1cc(C(=O)OC)ccc1OC has composite z-score reaching or exceeding 0.02?
[out] fulfilled

Switching to the query record.
[in] Is it the case that O=C1C2C=CC(C(O)c3cc(C(F)(F)F)cc(C(F)(F)F)c3)N(n3cnnc3)C2C(=O)N1Cc1ccccc1 (configuration not stated) has composite z-score reaching or exceeding 0.02?
[out] not fulfilled

Every entry's value here was drawn from PubChem BioAssay.
